Molecular target: T1, human CTGF (Homo sapiens, UniProt P29279, H83D)
T1 construct: purchased R&D Systems
T1 sequence (P29279 27-349 H83D): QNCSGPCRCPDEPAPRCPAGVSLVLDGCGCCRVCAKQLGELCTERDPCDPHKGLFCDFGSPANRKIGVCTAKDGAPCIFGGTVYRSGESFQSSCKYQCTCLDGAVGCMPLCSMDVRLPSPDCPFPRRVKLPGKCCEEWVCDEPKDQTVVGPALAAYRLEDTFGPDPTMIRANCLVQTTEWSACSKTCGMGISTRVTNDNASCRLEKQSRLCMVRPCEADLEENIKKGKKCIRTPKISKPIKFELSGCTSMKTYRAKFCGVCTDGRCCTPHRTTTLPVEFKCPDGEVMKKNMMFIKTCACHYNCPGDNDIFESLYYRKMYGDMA
Assay: ELISA binding to full-length human CTGF (Example 9)
Conditions: coated 1 μg/ml, muteins from 1000 nM, read-out: EC Human CTGF
Hi there, I'd appreciate the recorded pEC50 for every entry that follows.
# log scale: pEC50 equals minus log10 of the concentration in mol/L

Quick one: pEC50 of SEQ ID NO: 9: parent CTGF-binding hNGAL lipocalin mutein (protein, lipocalin mutein) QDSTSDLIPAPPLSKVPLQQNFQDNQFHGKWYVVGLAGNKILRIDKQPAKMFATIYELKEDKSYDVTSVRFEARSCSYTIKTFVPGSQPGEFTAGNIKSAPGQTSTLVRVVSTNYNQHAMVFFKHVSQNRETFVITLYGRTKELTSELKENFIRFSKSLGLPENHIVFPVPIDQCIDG ? 7.85

Moving on to the next molecule: SEQ ID NO: 3: parent CTGF-binding hNGAL lipocalin mutein (protein, lipocalin mutein) QDSTSDLIPAPPLSKVPLQQNFQDNQFHGKWYVVGRAGNNRLREDKDPPKMWATIYELKEDKSYNVTHVHFMTKKCRYIIDTFVPGSQPGEFTLGAIKSGPGMTSPLVRIVSTNYNQHAMVFFKWVNQNREWFTITLYGRTKELTSELKENFIRFSKSLGLPENHIVFPVPIDQCIDG 8.16

Moving on to the next molecule: SEQ ID NO: 25: parent CTGF-binding hNGAL lipocalin mutein (protein, lipocalin mutein) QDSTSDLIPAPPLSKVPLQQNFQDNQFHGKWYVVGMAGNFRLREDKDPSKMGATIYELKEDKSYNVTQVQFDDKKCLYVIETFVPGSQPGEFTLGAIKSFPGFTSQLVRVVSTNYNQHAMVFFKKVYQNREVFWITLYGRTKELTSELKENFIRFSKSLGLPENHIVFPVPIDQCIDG 7.96

Moving on to the next molecule: SEQ ID NO: 29: parent CTGF-binding hNGAL lipocalin mutein (protein, lipocalin mutein) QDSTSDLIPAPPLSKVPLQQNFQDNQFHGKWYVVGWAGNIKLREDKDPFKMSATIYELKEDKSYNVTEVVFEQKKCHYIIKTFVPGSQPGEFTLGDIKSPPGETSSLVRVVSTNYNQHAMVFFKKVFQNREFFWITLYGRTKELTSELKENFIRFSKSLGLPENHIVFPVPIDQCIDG 7.96
